- Tested on: Aedes aegypti larvae
- Experimental Details: Mosquito larvicidal assay
- Assay type: in vivo
- Condition Context: Aedes aegypti, 48 h
Catalogue of LC50 readings, one per entry.
Reported Metric: LC50 (mg/L)

• Cc1nc2ccccc2c(=O)n1CC(=O)Nc1ccc(Br)cc1 = 3.66
• Cc1nc2ccccc2c(=O)n1CC(=O)Nc1cccc(Cl)c1 = 10.1
• Cc1nc2ccccc2c(=O)n1CC(=O)Nc1ccccc1Cl = 22.7
• Cc1ccc(NC(=O)Cn2c(C)nc3ccccc3c2=O)cc1 = 5.92
• Cc1nc2ccccc2c(=O)n1CC(=O)Nc1ccc(Cl)cc1 = 3.64
• COc1ccc(NC(=O)Cn2c(C)nc3ccccc3c2=O)cc1 = 4.27

###

Observed IC50, system electric eel (Electrophorus electricus) AChE (Electrophorus electricus, UniProt O42275).
Reported Metric: IC50 (µM)

* Cc1nc2ccccc2c(=O)n1CC(=O)Nc1ccc(Br)cc1 | 714
* Cc1nc2ccccc2c(=O)n1CC(=O)Nc1cccc(Cl)c1 | 231
* Cc1nc2ccccc2c(=O)n1CC(=O)Nc1ccc([N+](=O)[O-])cc1 | 454
* Cc1ccc(NC(=O)Cn2c(C)nc3ccccc3c2=O)cc1 | 186
